Data credit: the METLIN SMRT retention time set (Domingo-Almenara et al. 2019)

assay: gradient 5% acetonitrile 3 min, to 50% in 2 min, to 85% in 15 min, held 3 min, 100 µL/min
setup conditions: column: Zorbax Extend-C18 2.1 x 50 mm; eluents: water / acetonitrile, 0.1% formic acid
Recorded measurements of RP-LC retention time, one per entry
Give the quantity in s, number only.

The examples below pair each entry with its known result.
molecule	unit of measurement	reported value
CCN(CC)CCCNC(=O)C1c2ccccc2C(=O)N2CCc3cc(OC)c(OC)cc3C12 (stereo not given)	s	597
CCC(C)NC(=O)C1(c2ccc(NS(=O)(=O)CC)cc2)CCCCC1 (stereo not given)	s	887
CC(C)NC(=O)c1ccc(OCC2CCCN(C(=O)C3CCCO3)C2)cc1 (stereo not given)	s	688
O=C(C1CCc2nc(N3CCCC3)ncc2C1)N1CCN(Cc2ccc3c(c2)OCO3)CC1 (stereo not given)	s	566
CCc1ccc(N2C(=O)N(CC(=O)N3CCOc4ccc(C)cc43)C3CS(=O)(=O)CC32)cc1 (stereo not given)	s	966

Bench note: what RP-LC retention time did COc1cccc(NC(=O)Cn2c(N3CCOCC3)nc(C)cc2=O)c1 show?
652

Any idea what its RP-LC retention time is? The molecule is CS(=O)(=O)N1CCC(C(=O)Nc2cccc(F)c2)Oc2ccccc21 (stereo not given)
894

Would you kindly share the measured RP-LC retention time for Cc1ccc2nc(-c3ccc(N4CCOCC4)cc3)c(Nc3ccc4c(c3)OCO4)n2c1 ?
690

====

assay: gradient 5% acetonitrile 3 min, to 50% in 2 min, to 85% in 15 min, held 3 min, 100 µL/min
setup conditions: column: Zorbax Extend-C18 2.1 x 50 mm; eluents: water / acetonitrile, 0.1% formic acid
Label Condition met when RP-LC retention time is at or above 800 s; anything below gets Condition not met.

Consider the worked cases shown below.
compound	category label
O=C(CCc1ccccc1)N1CCC(n2nnc3cc(F)ccc3c2=O)CC1	Condition met
CC(C)Cc1nc2nccc(-c3ccccc3)n2n1	Condition met
O=C(Cn1nc2c3ccc(F)cc3ncn2c1=O)Nc1ccccc1Cl	Condition not met
CCc1ccc(S(=O)(=O)N2CCc3nc(-c4ccc(F)cc4)ncc3C2)cc1	Condition met
Cc1cc(OCC(=O)NCc2ccc(Cl)cc2)nc(N2CCN(c3ccccc3)CC2)n1	Condition met
O=C(Cc1nnc(-c2ccc3ncccc3c2)o1)Nc1ccc(C(F)(F)F)cc1	Condition met
CCOc1ccc(C(=O)N2CCC3(CC2)C(=O)N(CC)c2ccccc23)cc1OCC	Condition met

Moving on to the next compound.
Check if RP-LC retention time >= 800 s (inclusive). Item: COC(=O)c1ccc(NC(=O)C(=O)NCC(O)c2sccc2C)cc1 (centres undefined)
Condition not met

====

assay: gradient 5% acetonitrile 3 min, to 50% in 2 min, to 85% in 15 min, held 3 min, 100 µL/min
setup conditions: column: Zorbax Extend-C18 2.1 x 50 mm; eluents: water / acetonitrile, 0.1% formic acid
RP-LC retention time overview
Report as a plain number; the unit s is understood.

Consider the following illustrative entries.
compound	RP-LC retention time, s
CC(CNC(=O)c1cc2sccc2n1C)c1ccccc1 (stereo not given)	983
COC(=O)c1ccccc1NC(=O)c1noc2c1CCC2	1110
CCn1c(=O)c(N2CCCC(C(=O)NCc3cc(Br)ccc3OC)C2)nc2ccccc21 (stereo not given)	1140

Recorded RP-LC retention time for c1cc(-c2nnc3sc(-c4csc5c4CCCC5)nn23)ccn1 , please?
993

Reported RP-LC retention time, compound CCCC(=O)Nc1ccc2c(c1)CN(C(=O)c1ccccc1)C(C(=O)N(C)C)C2 (stereo not given) : ____
671

Entry CCc1ccc(CNC(=O)C2(CC)CCCCC(=O)N2)cc1 (stereo not given) has what RP-LC retention time?
771

Can you share its RP-LC retention time? I mean this compound: Cc1noc2nc(CCC(=O)NCc3ccc(F)cc3Cl)nc(N3CCOCC3)c12
666

May I ask what RP-LC retention time has been recorded for O=C(COc1ccc(F)cc1)Nc1ccc2c(c1)CCC(=O)N2 ?
705

So what's the measured RP-LC retention time for this one? Cc1ccc(Cl)cc1S(=O)(=O)NCC(O)Cc1ccccc1 (stereo not given)
858

For Cc1ccc2c(ccn2CCNC(=O)C2CC(=O)N(c3n[nH]c4ccccc34)C2)c1 (stereo not given) , what is its reported RP-LC retention time?
766
